These data points were gathered from patent US8703784B2.

Record set of pIC50 for target or system mTOR enzyme (Homo sapiens).
pIC50: −log10 of the molar value.

| molecule | pIC50 |
| --- | --- |
| O=C1CCNc2c1c(N1CCS(=O)(=O)CC1)nc1c(-c3ccc(-c4ccccc4)nc3)cnn21 | > 8.00 |
| O=C1CCNc2c1c(C1CC3CCC(C1)N3C(=O)c1nnc[nH]1)nc1c(-c3ccc(-c4ccccc4)nc3)cnn21 (stereo not drawn) | > 8.00 |
| O=C(c1nnc[nH]1)N1C2CCC1CC(c1nc3c(-c4ccc(-c5ccccc5)nc4)cnn3c3[nH]ccc(=O)c13)C2 (stereo not drawn) | > 8.00 |
| O=C1CCNc2c1c(C1CCN(C(=O)CO)CC1)nc1c(-c3ccc(-c4ccccc4)nc3)cnn21 | > 8.00 |
| O=C1CCNc2c1c(C1CCS(=O)(=O)CC1)nc1c(-c3ccc(-c4ccccc4)nc3)cnn21 | > 8.00 |
| O=C1CCNc2c1c(C1CCS(=O)(=O)CC1)nc1c(-c3cnc4ccccc4c3)cnn21 | 7.00 to 8.00 |
